# experiment-summary: Cytotoxicity, PrestoBlue cell viability assay in BV-2 cells
# Assay type: cell-based, mouse
# test-conditions: mouse, BV-2 microglial cells; 24 h; read-out: immunotoxicity in BV-2 cells, % of cell viability
Attribute: viability at 24 h, 0.1 µM
assay-endpoint: viability at 24 h, 0.1 µM (%)

INSERT INTO results (compound, assay_endpoint, experimental_value) VALUES
  ('NC(=O)Nc1cc(-c2cccc(NC(=O)C3CC3)c2)sc1C(N)=O', 'viability at 24 h, 0.1 µM', 106),
  ('O=C1NC2(CCOC2)Nc2cc(-c3ccnc(NC(=O)C4CC4)c3)sc21 (stereo not shown)', 'viability at 24 h, 0.1 µM', 105),
  ('CC(C)C(=O)Nc1cc(-c2cc(NC(N)=O)c(C(N)=O)s2)ccn1', 'viability at 24 h, 0.1 µM', 103),
  ('O=C1NC2(CCCC2)Nc2cc(-c3ccnc(NC(=O)C4CC4)c3)sc21', 'viability at 24 h, 0.1 µM', 108),
  ('NC(=O)Nc1cc(-c2ccnc(NC(=O)C3CCC3)c2)sc1C(N)=O', 'viability at 24 h, 0.1 µM', 101),
  ('COc1nc(-c2ccnc(NC(=O)C3CC3)c2)sc1C(N)=O [II, reference compound]', 'viability at 24 h, 0.1 µM', 97),
  ('CC1(C)NC(=O)c2sc(-c3ccnc(NC(=O)C4CC4)c3)cc2N1', 'viability at 24 h, 0.1 µM', 106);

* * *

# experiment-summary: Cytotoxicity, PrestoBlue cell viability assay in HT-22 cells
# Type: cell-based, mouse
# test-conditions: mouse, HT-22 hippocampal neuronal cells; 24 h, PrestoBlue; mean ± SEM; read-out: Cytotoxicity in HT-22 Cells (IC50 x¯ ± SEM µM)
I'd appreciate it if you marked entries class 1 when IC50 at 24 h is lower than 40 µM and class 0 when it is not.

INSERT INTO results (compound, assigned_class) VALUES
  ('NC(=O)Nc1cc(-c2ccnc(NC(=O)C3CC3)c2)sc1C(N)=O [Compound 49]', 'class 0'),
  ('O=C1NC2(CCCC2)Nc2cc(-c3ccnc(NC(=O)C4CC4)c3)sc21 [Compound 60]', 'class 1'),
  ('CC(C)C(=O)Nc1cc(-c2cc(NC(N)=O)c(C(N)=O)s2)ccn1 [Compound 48]', 'class 1'),
  ('O=C1NC2(CCOC2)Nc2cc(-c3ccnc(NC(=O)C4CC4)c3)sc21 (centres unmarked) [Compound 62]', 'class 0'),
  ('COc1nc(-c2ccnc(NC(=O)C3CC3)c2)sc1C(N)=O [II, reference compound]', 'class 0'),
  ('NC(=O)Nc1cc(-c2cccc(NC(=O)C3CC3)c2)sc1C(N)=O [Compound 58]', 'class 0'),
  ('CC1(C)NC(=O)c2sc(-c3ccnc(NC(=O)C4CC4)c3)cc2N1 [Compound 40]', 'class 1'),
  ('CC(C)C(=O)Nc1cc(-c2cc3c(s2)C(=O)NC(C)(C)N3)ccn1 [Compound 39]', 'class 1');

* * *

# test-system: ROCK-1 (Homo sapiens, UniProt Q13464)
# Construct: purchased Promega
# Sequence (Q13464 whole entry): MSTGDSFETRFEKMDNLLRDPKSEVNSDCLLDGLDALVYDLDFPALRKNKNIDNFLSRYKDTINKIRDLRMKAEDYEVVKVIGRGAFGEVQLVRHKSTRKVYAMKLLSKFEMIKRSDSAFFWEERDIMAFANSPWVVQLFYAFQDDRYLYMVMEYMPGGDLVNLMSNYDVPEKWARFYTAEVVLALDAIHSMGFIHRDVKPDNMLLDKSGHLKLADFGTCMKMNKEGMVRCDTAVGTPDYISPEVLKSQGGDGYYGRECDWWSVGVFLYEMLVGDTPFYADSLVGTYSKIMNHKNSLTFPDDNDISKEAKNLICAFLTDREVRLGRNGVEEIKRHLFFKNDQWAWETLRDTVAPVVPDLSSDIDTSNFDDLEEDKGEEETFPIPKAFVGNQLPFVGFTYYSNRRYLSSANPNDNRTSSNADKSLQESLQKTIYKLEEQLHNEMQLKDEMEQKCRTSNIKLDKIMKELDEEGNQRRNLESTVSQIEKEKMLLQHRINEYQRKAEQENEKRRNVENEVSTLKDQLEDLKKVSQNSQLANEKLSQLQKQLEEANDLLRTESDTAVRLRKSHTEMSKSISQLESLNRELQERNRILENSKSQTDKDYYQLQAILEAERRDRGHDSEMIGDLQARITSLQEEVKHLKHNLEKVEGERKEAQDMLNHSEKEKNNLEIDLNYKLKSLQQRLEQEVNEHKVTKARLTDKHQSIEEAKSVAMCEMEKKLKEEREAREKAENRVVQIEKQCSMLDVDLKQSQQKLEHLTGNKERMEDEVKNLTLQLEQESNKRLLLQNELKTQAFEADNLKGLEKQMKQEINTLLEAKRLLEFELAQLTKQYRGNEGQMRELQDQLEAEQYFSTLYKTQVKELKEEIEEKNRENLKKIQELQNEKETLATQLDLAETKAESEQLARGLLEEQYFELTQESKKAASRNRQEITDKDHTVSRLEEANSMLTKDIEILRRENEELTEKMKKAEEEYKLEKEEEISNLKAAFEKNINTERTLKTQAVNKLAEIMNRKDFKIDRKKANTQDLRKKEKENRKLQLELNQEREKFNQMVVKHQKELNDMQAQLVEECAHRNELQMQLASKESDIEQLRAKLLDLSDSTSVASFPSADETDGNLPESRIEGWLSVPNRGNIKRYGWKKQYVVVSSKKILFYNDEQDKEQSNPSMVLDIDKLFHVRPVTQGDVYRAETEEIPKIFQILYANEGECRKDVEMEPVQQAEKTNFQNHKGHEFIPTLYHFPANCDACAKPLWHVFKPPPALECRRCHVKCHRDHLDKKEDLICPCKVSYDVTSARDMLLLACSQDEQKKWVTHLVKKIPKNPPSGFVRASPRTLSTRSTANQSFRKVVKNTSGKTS
# experiment-summary: ADP-Glo kinase assay, ROCK-1 inhibition
# Type: biochemical
pIC50: −log10 of the molar value.
assay-endpoint: pIC50

INSERT INTO results (molecule, experimental_value) VALUES
  ('O=C1NC2(CCOC2)Nc2cc(-c3ccnc(NC(=O)C4CC4)c3)sc21 (stereo not shown) [Compound 62]', 5.64);

* * *

# experiment-summary: Cytotoxicity, PrestoBlue cell viability assay in BV-2 cells
# Format: cell-based, mouse
# test-conditions: mouse, BV-2 microglial cells, 10 µM (log C -5); 24 h; read-out: immunotoxicity in BV-2 cells, % of cell viability
assay-endpoint: viability at 24 h, 10 µM (%)

INSERT INTO measurements (molecule, assay_endpoint, measurement_units, experimental_value) VALUES
  ('COc1nc(-c2ccnc(NC(=O)C3CC3)c2)sc1C(N)=O [II, reference compound]', 'viability at 24 h, 10 µM', '%', 60),
  ('NC(=O)Nc1cc(-c2cccc(NC(=O)C3CC3)c2)sc1C(N)=O [Compound 58]', 'viability at 24 h, 10 µM', '%', 97),
  ('O=C1NC2(CCOC2)Nc2cc(-c3ccnc(NC(=O)C4CC4)c3)sc21 (stereo not shown) [Compound 62]', 'viability at 24 h, 10 µM', '%', 105),
  ('NC(=O)Nc1cc(-c2ccnc(NC(=O)C3CCC3)c2)sc1C(N)=O [Compound 50]', 'viability at 24 h, 10 µM', '%', 114),
  ('O=C1NC2(CCCC2)Nc2cc(-c3ccnc(NC(=O)C4CC4)c3)sc21 [Compound 60]', 'viability at 24 h, 10 µM', '%', 9),
  ('CC(C)C(=O)Nc1cc(-c2cc(NC(N)=O)c(C(N)=O)s2)ccn1 [Compound 48]', 'viability at 24 h, 10 µM', '%', 66),
  ('CC1(C)NC(=O)c2sc(-c3ccnc(NC(=O)C4CC4)c3)cc2N1 [Compound 40]', 'viability at 24 h, 10 µM', '%', 9);

* * *

# test-system: GSK-3β (Homo sapiens, UniProt P49841)
# Sequence (P49841 whole entry): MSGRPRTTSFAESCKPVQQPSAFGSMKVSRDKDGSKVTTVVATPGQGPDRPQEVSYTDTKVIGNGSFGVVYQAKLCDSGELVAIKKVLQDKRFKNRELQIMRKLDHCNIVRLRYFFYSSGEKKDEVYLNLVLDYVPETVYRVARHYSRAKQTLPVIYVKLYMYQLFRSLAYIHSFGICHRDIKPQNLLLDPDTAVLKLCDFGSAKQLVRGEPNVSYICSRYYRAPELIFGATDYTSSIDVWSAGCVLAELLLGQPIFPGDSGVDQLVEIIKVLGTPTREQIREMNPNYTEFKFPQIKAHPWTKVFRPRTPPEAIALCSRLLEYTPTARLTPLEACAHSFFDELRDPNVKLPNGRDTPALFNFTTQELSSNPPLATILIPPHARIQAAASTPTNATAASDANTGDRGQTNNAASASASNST
# experiment-summary: Kinetic studies of GSK-3β inhibition (ADP-Glo, varying ATP)
# Assay type: biochemical
# Design: purchased Promega
# test-conditions: replot from Lineweaver-Burk plots; unit inferred; read-out: Determined Ki (Figure S2)
pKi: −log10 of the molar value.
assay-endpoint: pKi

INSERT INTO measurements (compound, assay_endpoint, experimental_value) VALUES
  ('O=C1NC2(CCOC2)Nc2cc(-c3ccnc(NC(=O)C4CC4)c3)sc21 (stereo not shown)', 'pKi', 8.65);

* * *

# test-system: ROCK-1 (Homo sapiens, UniProt Q13464)
# Construct: purchased Promega
# experiment-summary: ADP-Glo kinase assay, ROCK-1 inhibition
# Type: biochemical
# test-conditions: 10 µM; mean ± SD; read-out: % inh. at 10 µM ROCK-1
Attribute: inhibition at 10 µM
assay-endpoint: inhibition at 10 µM (%)

INSERT INTO assay_data (compound, assay_endpoint, measurement_units, limit_sign, experimental_value) VALUES
  ('CC1(C)NC(=O)c2sc(-c3ccnc(NS(C)(=O)=O)c3)cc2N1 [Compound 44]', 'inhibition at 10 µM', '%', '<', 10),
  ('NC(=O)Nc1cc(-c2ccnc(NC(=O)c3ccccc3)c2)sc1C(N)=O [Compound 52]', 'inhibition at 10 µM', '%', '=', 15),
  ('CC1(C)NC(=O)c2sc(-c3cccc(S(=O)(=O)N4CCCCC4)c3)cc2N1 [Compound 57]', 'inhibition at 10 µM', '%', '<', 10),
  ('CC(C)C(=O)Nc1cc(-c2cc3c(s2)C(=O)NC(C)(C)N3)ccn1 [Compound 39]', 'inhibition at 10 µM', '%', '=', 32),
  ('CC1(C)NC(=O)c2sc(-c3ccnc(NC(=O)C4CCC4)c3)cc2N1 [Compound 41]', 'inhibition at 10 µM', '%', '=', 48);

* * *

Attribute: pIC50
# test-system: GSK-3β (Homo sapiens)
pIC50: −log10 of the molar value.
assay-endpoint: pIC50

INSERT INTO results (molecule, experimental_value) VALUES
  ('CC1(C)NC(=O)c2sc(-c3ccc(F)c(NC(=O)C4CC4)c3)cc2N1 [Compound 54]', 6.34),
  ('NC(=O)Nc1cc(-c2ccnc(NC(=O)C3CC3)c2)sc1C(N)=O [Compound 49]', 7.70),
  ('CC(C)C(=O)Nc1cc(-c2cc3c(s2)C(=O)NC(C)(C)N3)ccn1 [Compound 39]', 7.92),
  ('O=C1NC2(CCOC2)Nc2cc(-c3ccnc(NC(=O)C4CC4)c3)sc21 (centres unmarked) [Compound 62]', 8.10),
  ('CC1(C)NC(=O)c2sc(-c3ccncc3)cc2N1 [I, reference compound]', 6.79),
  ('COc1nc(-c2ccnc(NC(=O)C3CC3)c2)sc1C(N)=O [II, reference compound]', 8.30),
  ('CC(=O)Nc1cc(-c2cc3c(s2)C(=O)NC(C)(C)N3)ccn1 [Compound 38]', 5.95),
  ('NC(=O)Nc1cc(-c2ccnc(NC(=O)C3CCCCC3)c2)sc1C(N)=O [Compound 51]', 6.21),
  ('O=C1NC2(CCCO2)Nc2cc(-c3ccnc(NC(=O)C4CC4)c3)sc21 (centres unmarked) [Compound 61]', 7.92),
  ('CC1(C)NC(=O)c2sc(-c3ccnc(NC(=O)C4CCCCC4)c3)cc2N1 [Compound 42]', 6.08),
  ('NC(=O)Nc1cc(-c2ccnc(NC(=O)C3CCC3)c2)sc1C(N)=O [Compound 50]', 7.47);

* * *

# test-system: GSK-3β (Homo sapiens, UniProt P49841)
# experiment-summary: ADP-Glo kinase assay, GSK-3β inhibition
# Type: biochemical
# Parameters: purchased Promega
# test-conditions: 10 µM; mean ± SD; read-out: % inh. at 10 µM GSK-3β
assay-endpoint: inhibition at 10 µM

INSERT INTO assay_data (compound, assay_endpoint, experimental_value) VALUES
  ('CC1(C)NC(=O)c2sc(-c3cccc(S(=O)(=O)N4CCCCC4)c3)cc2N1', 'inhibition at 10 µM', '< 10%'),
  ('CCS(=O)(=O)Nc1cc(-c2cc3c(s2)C(=O)NC(C)(C)N3)ccn1', 'inhibition at 10 µM', '40%'),
  ('CC(=O)Nc1cc(-c2cc(NC(N)=O)c(C(N)=O)s2)ccn1', 'inhibition at 10 µM', '34%'),
  ('CC1(C)NC(=O)c2sc(-c3ccnc(NCC4CC4)c3)cc2N1', 'inhibition at 10 µM', '39%'),
  ('NC(=O)Nc1cc(-c2ccc(F)cc2)sc1C(N)=O [III, reference compound]', 'inhibition at 10 µM', '47%'),
  ('NC(=O)Nc1cc(-c2cccc(NC(=O)C3CC3)c2)sc1C(N)=O', 'inhibition at 10 µM', '36%'),
  ('CC1(C)NC(=O)c2sc(-c3ccnc(NS(C)(=O)=O)c3)cc2N1', 'inhibition at 10 µM', '32%'),
  ('CC1(C)NC(=O)c2sc(-c3cccc(NC(=O)C4CC4)c3)cc2N1', 'inhibition at 10 µM', '47%'),
  ('CCS(=O)(=O)Nc1cccc(-c2cc3c(s2)C(=O)NC(C)(C)N3)c1', 'inhibition at 10 µM', '11%'),
  ('CC1(C)NC(=O)c2sc(-c3cccc(NS(=O)(=O)C4CCCCC4)c3)cc2N1', 'inhibition at 10 µM', '< 10%');
